Biological target: T1, Unr CSD789 Q975A (Drosophila, UniProt B7Z0E2 756-990, Q975A)
T1 sequence: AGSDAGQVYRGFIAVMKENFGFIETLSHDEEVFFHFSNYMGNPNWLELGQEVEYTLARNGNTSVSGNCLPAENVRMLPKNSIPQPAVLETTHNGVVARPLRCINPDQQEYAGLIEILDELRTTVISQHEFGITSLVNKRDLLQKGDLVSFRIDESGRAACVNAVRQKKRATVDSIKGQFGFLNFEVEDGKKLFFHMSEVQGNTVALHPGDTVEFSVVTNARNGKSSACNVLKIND
Experiment: fluorescence polarization
ATTRIBUTE MEASURED: Kd (µM)
All answers are understood in µM, so give the number only.

## Task Form field: reported Kd of AAAAAAAAAAAAAAA (ssRNA) [A15-mer, 3' labelled]
## Result 38.2
